List of relative IC50 values.
system: ST8814; assay: relative IC50 (inflection point of fitted dose-response curve, CellTox-Green cytotoxicity, 72 h; top asymptote may be below 50%); higher = less potent

compound | relation.sign | relative IC50 [nM]
CCN(CC)CCNC(=O)c1c(C)[nH]c(/C=C2\C(=O)Nc3ccc(F)cc32)c1C [Sunitinib] | > | 1000
CC[C@@H]1C(=O)OC[C@@H]1Cc1cncn1C [Pilocarpine] | > | 40000
Cc1cc(Nc2cc(CN3CCOCC3)c3nc(C)c(Cc4ccc(Cl)cc4F)n3n2)n[nH]1 [Gandotinib] | = | 2770
CC[C@@]1(O)C(=O)OCc2c1cc1n(c2=O)Cc2cc3c(CN(C)C)c(O)ccc3nc2-1 [Topotecan] | = | 23.3

---

test system: ST8814; test: drug sensitivity score (DSS, CellTiter-Glo viability, 72 h) (DSS (dimensionless)); higher = more sensitive; extreme values may be limits of the assay

compound | drug sensitivity score
Cc1sc2c(c1C)C(c1ccc(Cl)cc1)=N[C@@H](CC(=O)OC(C)(C)C)c1nnc(C)n1-2 [(+)JQ1] (max concentration tested 10000 nM) | 14.8
Cc1cnc(Nc2ccc(F)cc2Cl)nc1-c1c[nH]c(C(=O)N[C@H](CO)c2cccc(Cl)c2)c1 [VX-11E] (max concentration tested 2500 nM) | 3.25
COc1cc2nccc(Oc3ccc(NC(=O)Nc4cc(C)on4)c(Cl)c3)c2cc1OC [Tivozanib] (max concentration tested 10000 nM) | 0
Sc1ncnc2nc[nH]c12 [Mercaptopurine] (max concentration tested 10000 nM) | 10.2
CN(C)/N=N/c1[nH]cnc1C(N)=O [Dacarbazine] (max concentration tested 10000 nM) | 0
COc1cccc2c1C(=O)c1c(O)c3c(c(O)c1C2=O)C[C@@](O)(C(=O)CO)C[C@@H]3O[C@H]1C[C@H](N)[C@H](O)[C@H](C)O1 [Doxorubicin] (max concentration tested 1000 nM) | 9.59

---

Each item that follows carries a reported drug sensitivity score.
tested on: S462; test: drug sensitivity score (DSS, CellTiter-Glo viability, 72 h) (DSS (dimensionless)); higher = more sensitive; extreme values may be limits of the assay

molecule | drug sensitivity score
O=C(Nc1ccc2[nH]nc(-c3ccncc3)c2c1)[C@@H]1CCN(CC(=O)N2CCN(c3ccc(-c4ncccn4)cc3)CC2)C1 (max concentration tested 10000 nM) | 20.4
NC(=O)c1ccc(I)c([N+](=O)[O-])c1 [Iniparib] (max concentration tested 10000 nM) | 0
c1ccc2c(CCNc3ccc(Nc4ccncc4)cc3)c[nH]c2c1 [Serdemetan] (max concentration tested 10000 nM) | 10.8
CC[C@H](Nc1ncnc2[nH]cnc12)c1nc2cccc(F)c2c(=O)n1-c1ccccc1 [Idelalisib] (max concentration tested 10000 nM) | 0
Cc1ccc([N+](=O)[O-])cc1S(=O)(=O)N(C)/N=C/c1cnc2ccc(Br)cn12 [PIK-75] (max concentration tested 10000 nM) | 21.2
O=C(Nc1ccncc1)C(=O)c1cn(Cc2ccc(Cl)cc2)c2ccccc12 [Indibulin] (max concentration tested 10000 nM) | 16.5
CC(=O)Nc1cccc(-n2c(=O)n(C3CC3)c(=O)c3c(Nc4ccc(I)cc4F)n(C)c(=O)c(C)c32)c1 [Trametinib] (max concentration tested 250 nM) | 13.5
CCC1(c2ccc(N)cc2)CCC(=O)NC1=O (centres undefined) [Aminoglutethimide] (max concentration tested 10000 nM) | 0
Cc1cnc(NC(=O)Nc2cc(Br)c(C)cc2OC[C@@H]2CNCCO2)cn1 [Rabusertib] (max concentration tested 1000 nM) | 5.07
Cn1c(Nc2ccc(C(F)(F)F)cc2)nc2cc(Oc3ccnc(-c4ncc(C(F)(F)F)[nH]4)c3)ccc21 [RAF265] (max concentration tested 1000 nM) | 5.79
CCCCCOC(=O)Nc1nc(=O)n([C@@H]2O[C@H](C)[C@@H](O)[C@H]2O)cc1F [Capecitabine] (max concentration tested 10000 nM) | 0
COc1ccc(C2=N[C@@H](c3ccc(Cl)cc3)[C@@H](c3ccc(Cl)cc3)N2C(=O)N2CCNC(=O)C2)c(OC(C)C)c1 [Nutlin-3] (max concentration tested 10000 nM) | 0
COc1ncc(-c2ccc3nccc(-c4ccnnc4)c3c2)cc1NS(=O)(=O)c1ccc(F)cc1F (max concentration tested 1000 nM) | 10.1
C[C@H]1C=C2C(=O)O[C@H]3CC[C@@H](C1)[C@@]23O [Galiellalactone] (max concentration tested 50000 nM) | 9.23
CN1CCN(CCOc2cc(OC3CCOCC3)c3c(Nc4c(Cl)ccc5c4OCO5)ncnc3c2)CC1 [Saracatinib] (max concentration tested 10000 nM) | 3.91
C[C@]12CC[C@H](O)CC1=CC[C@@H]1[C@@H]2CC[C@]2(C)C(c3cccnc3)=CC[C@@H]12 [Abiraterone] (max concentration tested 5000 nM) | 0.775
CC(=O)[C@]1(O)Cc2c(O)c3c(c(O)c2[C@@H](O[C@H]2C[C@H](N)[C@H](O)[C@H](C)O2)C1)C(=O)c1ccccc1C3=O [Idarubicin] (max concentration tested 1000 nM) | 23.5
N#Cc1ccc(COC[C@H]2O[C@@H](n3c(NCc4ccc(Cl)c(Cl)c4)nc4c(N)ncnc43)[C@H](O)[C@@H]2O)cc1 (max concentration tested 10000 nM) | 0.314
CCc1cnn2c(NCc3ccc[n+]([O-])c3)cc(N3CCCC[C@H]3CCO)nc12 [Dinaciclib] (max concentration tested 1000 nM) | 24.4
CN(C)C(=N)NC(=N)N [Metformin aq] (max concentration tested 100000 nM) | 0
CC(C)C(=O)Nc1ccc([N+](=O)[O-])c(C(F)(F)F)c1 [Flutamide] (max concentration tested 10000 nM) | 0
Cc1cc(Nc2nc(N[C@@H](C)c3ncc(F)cn3)ncc2Cl)[nH]n1 [AZD1480] (max concentration tested 1000 nM) | 1.64
COc1cc(OC2CCN(C)CC2)ccc1Nc1ncc2c(n1)n(C1CCCC1)c(=O)n2C [AZ 3146] (max concentration tested 10000 nM) | 9.91
CN(C)C/C=C/C(=O)Nc1cc2c(Nc3ccc(F)c(Cl)c3)ncnc2cc1O[C@H]1CCOC1 [Afatinib] (max concentration tested 1000 nM) | 0

---

test system: HS-PSS; assay: drug sensitivity score (DSS, CellTox-Green cytotoxicity, 72 h) (DSS (dimensionless)); higher = more cytotoxic; extreme values may be limits of the assay

molecule | drug sensitivity score
Cc1cc(OCc2nnc(SC3CCCC3)n2-c2cccnc2)ccc1-c1ccc(S(C)(=O)=O)cc1 [NMS-873] (max concentration tested 10000 nM) | 5.58
Cc1nc(N)sc1-c1ccnc(Nc2ccc(N3CCOCC3)cc2)n1 [CYC-116] (max concentration tested 10000 nM) | 0
N#CC(c1ccnc(OCc2ccc(CN3CCOCC3)cc2)n1)c1nc2ccccc2s1 (stereo not drawn) [Bentamapimod] (max concentration tested 10000 nM) | 1.1

---

Recorded relative IC50, one value per entry.
system: ST8814; experiment: relative IC50 (inflection point of fitted dose-response curve, CellTox-Green cytotoxicity, 72 h; top asymptote may be below 50%); higher = less potent
readout.kind: relative IC50

molecule | readout.kind | value.reported
COC(=O)c1ccc2c(c1)NC(=O)/C2=C(\Nc1ccc(N(C)C(=O)CN2CCN(C)CC2)cc1)c1ccccc1 [Nintedanib] | relative IC50 | > 10000 nM
CCNC(=O)c1noc(-c2cc(C(C)C)c(O)cc2O)c1-c1ccc(CN2CCOCC2)cc1 [NVP-AUY922] | relative IC50 | 67.9 nM
CN[C@@H]1C[C@H]2O[C@@](C)([C@@H]1OC)n1c3ccccc3c3c4c(c5c6ccccc6n2c5c31)C(=O)N[C@H]4O [UCN-01] | relative IC50 | 257 nM
CC(C)(C)c1cnc(CSc2cnc(NC(=O)C3CCNCC3)s2)o1 [SNS-032] | relative IC50 | 27.2 nM
C[C@]1(c2nc3c(C(N)=O)cccc3[nH]2)CCCN1 [Veliparib] | relative IC50 | > 10000 nM
CC(O)(CS(=O)(=O)c1ccc(F)cc1)C(=O)Nc1ccc(C#N)c(C(F)(F)F)c1 (stereo unspecified) [Bicalutamide] | relative IC50 | > 10000 nM
N[C@@H](Cc1ccc(N(CCCl)CCCl)cc1)C(=O)O [Melphalan aq] | relative IC50 | > 12500 nM
Cn1c(=O)c(F)c(Nc2ccc(I)cc2F)c2c(=O)n(C[C@@H](O)CO)cnc21 [TAK-733] | relative IC50 | 218 nM
O=C(NC[C@H](O)CO)c1ccncc1Nc1ccc(I)cc1F [Pimasertib] | relative IC50 | 2060 nM
Cc1c(CN2CCN(C(=O)[C@H](C)O)CC2)sc2c(N3CCOCC3)nc(-c3cnc(N)nc3)nc12 [GDC-0980] | relative IC50 | 2880 nM
N[C@@H](CSC(c1ccccc1)(c1ccccc1)c1ccccc1)C(=O)O [S-trityl-L-cysteine] | relative IC50 | > 40000 nM
CC(C)(C)c1cc(NC(=O)Nc2ccc(-c3cn4c(n3)sc3cc(OCCN5CCOCC5)ccc34)cc2)no1 [Quizartinib] | relative IC50 | > 1000 nM
C=C(c1ccc(C(=O)O)cc1)c1cc2c(cc1C)C(C)(C)CCC2(C)C [Bexarotene] | relative IC50 | > 10000 nM
CC[C@H](Nc1ncnc2[nH]cnc12)c1nc2cccc(F)c2c(=O)n1-c1ccccc1 [Idelalisib] | relative IC50 | > 10000 nM
O=C(CCCCCCC(=O)Nc1ccccc1)NO [Vorinostat] | relative IC50 | 3150 nM
COc1cc([C@@H]2c3cc4c(cc3[C@@H](O[C@@H]3O[C@@H]5CO[C@@H](C)O[C@H]5[C@H](O)[C@H]3O)[C@H]3COC(=O)[C@H]23)OCO4)cc(OC)c1O [Etoposide] | relative IC50 | 3230 nM
